- TEST_SYSTEM: recombinant human His-tagged MDM2 protein (residues 1-118) (Homo sapiens (Human))
- Sequence (Q00987 1-118): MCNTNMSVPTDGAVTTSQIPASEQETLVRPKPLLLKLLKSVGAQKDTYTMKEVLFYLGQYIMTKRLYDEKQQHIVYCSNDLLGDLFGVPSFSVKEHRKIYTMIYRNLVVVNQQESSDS
- PROTOCOL: Fluorescence-polarization MDM2 binding assay;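 also: fluorescence polarization read after three hours of incubation in potassium phosphate buffer containing bovine gamma globulin and Triton X-100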
- SETTINGS: Table 19A; FP binding assay; read-out: MDM2 IC50
READOUT: IC50

                            compound_smiles  recorded_result
0  CC(C)(C)C[C@H]1N[C@@H](C(=O)NCCN2CCN(S(C)(=O)=O)CC2)[C@H](c2cccc(Cl)c2F)[C@@]12C(=O)Nc1cc(Cl)ccc12           < 1 µM
1  CCCCNC(=O)N1CC(NC(=O)[C@@H]2N[C@H](CC(C)(C)C)[C@]3(C(=O)Nc4cc(Cl)ccc43)[C@H]2c2cccc(Cl)c2F)C1         < 0.1 µM
2  CC(C)(C)C[C@H]1N[C@@H](C(=O)NCC[C@@](C)(O)CO)[C@H](c2cccc(Cl)c2F)[C@@]12C(=O)Nc1cc(Cl)ccc12           < 3 µM

Requested field: IC50. Item: CC(C)(C)C[C@H]1N[C@@H](C(=O)NCCN2CC[C@H](O)C2)[C@H](c2cccc(Cl)c2)[C@@]12C(=O)Nc1cc(Cl)c(F)cc12
< 1 µM

Try CC(C)(C)C[C@H]1N[C@@H](C(=O)NC2CCN(CCO)CC2)[C@H](c2cccc(Cl)c2F)[C@@]12C(=O)Nc1cc(Cl)ccc12 next.
< 0.5 µM

Please do the same for CC(C)(C)C[C@H]1N[C@@H](C(=O)NCCCN2CCCCC2)[C@H](c2cccc(Cl)c2F)[C@@]12C(=O)Nc1cc(Cl)ccc12 as well.
< 10 µM

Also need CC(C)(C)C[C@H]1N[C@@H](C(=O)NCC[C@H](O)CNC(C)(C)C)[C@H](c2cccc(Cl)c2)[C@@]12C(=O)Nc1cc(Cl)c(F)cc12 , thanks.
< 2 µM

Also CC(C)(C)C[C@H]1N[C@@H](C(=O)NC2CCNCC2)[C@H](c2cccc(Cl)c2F)[C@@]12C(=O)Nc1cc(Cl)ccc12 ?
< 1 µM

Let us now turn to CC(C)(C)C[C@H]1N[C@@H](C(=O)NCC[C@H](O)CN2CC[C@@H](O)C2)[C@H](c2cccc(Cl)c2)[C@@]12C(=O)Nc1cc(Cl)c(F)cc12
< 1 µM

Proceed to CN1CCN(CCCNC(=O)[C@@H]2N[C@H](CC(C)(C)C)[C@]3(C(=O)Nc4cc(Cl)c(F)cc43)[C@H]2c2cccc(Cl)c2)CC1
< 1 µM

Provenance of the data: patent US9079913B2
